Entries with their measured IC50, system UniProtKB P27338:

Enquiry: Determine from records and report IC50 for O=C(/C=C/c1ccccc1C(F)(F)F)Nc1cccc(F)c1
Return: 3.37 µM

Enquiry: State its IC50: COc1cccc(C(=O)/C=C/c2ccccc2)c1
Return: 0.793 µM

Enquiry: Write down IC50 measured for item O=C(/C=C/c1ccccc1Cl)Nc1ccc(O)cc1
Return: > 10 µM

Enquiry: Tell me IC50 reported for O=C(/C=C/c1ccccc1C(F)(F)F)Nc1ccccc1
Return: 8.39 µM
